The measurements presented in this section are drawn from patent US20240239878A1.

Biological target: T1, Cynomolgus monkey DLL3 on HEK293 cells (HEK293-cyno DLL3) (Cynomolgus monkey, UniProt Q9NYJ7 27-618 (human entry))
T1 chain: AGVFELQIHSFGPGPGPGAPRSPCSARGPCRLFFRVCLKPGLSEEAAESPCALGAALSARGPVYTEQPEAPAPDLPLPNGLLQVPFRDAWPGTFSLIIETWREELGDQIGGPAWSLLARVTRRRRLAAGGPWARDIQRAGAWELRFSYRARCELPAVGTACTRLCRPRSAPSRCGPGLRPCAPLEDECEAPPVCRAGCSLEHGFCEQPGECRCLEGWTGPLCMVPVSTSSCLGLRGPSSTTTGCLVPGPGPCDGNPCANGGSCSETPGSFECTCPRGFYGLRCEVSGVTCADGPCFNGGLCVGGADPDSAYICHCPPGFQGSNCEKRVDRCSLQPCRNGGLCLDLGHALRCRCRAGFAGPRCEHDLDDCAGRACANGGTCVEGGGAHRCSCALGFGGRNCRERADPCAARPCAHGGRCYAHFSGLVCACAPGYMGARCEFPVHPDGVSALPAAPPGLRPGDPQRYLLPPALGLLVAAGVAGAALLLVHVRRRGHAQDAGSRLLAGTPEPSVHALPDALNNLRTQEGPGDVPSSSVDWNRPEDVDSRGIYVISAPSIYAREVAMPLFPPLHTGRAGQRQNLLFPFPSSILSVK
Assay: flow cytometry, HEK293-cyno DLL3 cells
metric name: Top MFI (MFI)
Record the value in MFI, omitting the unit from your answer.

[
  {
    "binder": "DLL3-276 camelid-derived anti-DLL3 chimeric antibody (antibody, human IgG1, V domains shown) VH: QVQLVESGGGSVQAGGSLNLSCATSGSTASTTYMGWFRQAPGKGREGVAIIYTARDNPWYANSVKGRFIISQDNAKKTLYLQMNTLKPEDTATYYCAATLANPTRTAWGQGTLVTVSS",
    "measurement": 179
  },
  {
    "binder": "DLL3-26 camelid-derived anti-DLL3 chimeric antibody (antibody, human IgG1, V domains shown) VH: QVQLVESGGGSVQAGGSLRLSCAASGDIYSSSYVGWFRQAPGKEREGVAIIYTSGDSTYYANSVKGRFTISQDKAKKTLYLQMNSLKPEDTAMYYCAARFAIDNSNYWGQGTQVTVSS",
    "measurement": 336
  },
  {
    "binder": "hDLL3-26 camelid-derived humanized anti-DLL3 antibody (antibody, V domains shown) VH: EVQLVESGGGLVQPGGSLRLSCAASGDIYSSSYVGWFRQAPGKEREGVAIIYTSGDSTYYADSVKGRFTISRDNSKNTLYLQMNSLRAEDTAVYYCAARFAIDNSNYWGQGTLVTVSS",
    "measurement": 301
  },
  {
    "binder": "hDLL3-122 camelid-derived humanized anti-DLL3 antibody (antibody, V domains shown) VH: EVQLVESGGGLVQPGGSLRLSCAASGDTYRSYCMGWFRQAPGKEREGVADIVSDGSTSYADSVKGRFTISRDNSKNTLYLQMNSLRAEDTAVYYCAVDRGGSGGYCYTGRYDYWGQGTLVTVSS",
    "measurement": 351
  },
  {
    "binder": "DLL3-12 camelid-derived anti-DLL3 chimeric antibody (antibody, human IgG1, V domains shown) VH: QVQLVESGGGLVQPGESLRLSCAGSGFAFSSYDMHWVRQAPGKDFEWVSSISRDGRGPRYADFVKGRFTISKDNGRNMLYLQLNSLEIEDTAMYYCSKGYPIMGGTTQGTQVTVSS",
    "measurement": 232
  }
]

Measured Top MFI, hDLL3-276 camelid-derived humanized anti-DLL3 antibody (antibody, V domains shown) VH: QVQLVESGGGVVQPGGSLRLSCAASGSTASTTYMGWFRQAPGKGREGVAIIYTARDNPWYADSVKGRFTISRDNSKNTLYLQMNSLRAEDTAVYYCAATLANPTRTAWGQGTLVTVSS : 148

Measured Top MFI, DLL3-3 camelid-derived anti-DLL3 chimeric antibody (antibody, human IgG1, V domains shown) VH: DVQLVESGGGSVQAGGSLKLSCKSPTYTISSGYMGWFRQAPGKEREGVAAIYIGGSTTLYADSVKGRFTISADNAEKTVYLQMNTLKPEDSAMYYCAAQLRPNSAYHPLDGRKYNYWGQGTQVTVSS : 379

Measured Top MFI, hDLL3-12-1 camelid-derived humanized anti-DLL3 antibody (antibody, V domains shown) VH: QVQLVESGGGVVQPGRSLRLSCAASGFAFSSYDMHWVRQAPGKGLEWVSSISRDGRGPRYADSVKGRFTISRDNSKNTLYLQMNSLRAEDTAVYYCSKGYPIMGGTTQGTLVTVSS : 178
